Target: RFA-P synthase (Archaeoglobus fulgidus, UniProt O28190)
Sequence (O28190 1-313): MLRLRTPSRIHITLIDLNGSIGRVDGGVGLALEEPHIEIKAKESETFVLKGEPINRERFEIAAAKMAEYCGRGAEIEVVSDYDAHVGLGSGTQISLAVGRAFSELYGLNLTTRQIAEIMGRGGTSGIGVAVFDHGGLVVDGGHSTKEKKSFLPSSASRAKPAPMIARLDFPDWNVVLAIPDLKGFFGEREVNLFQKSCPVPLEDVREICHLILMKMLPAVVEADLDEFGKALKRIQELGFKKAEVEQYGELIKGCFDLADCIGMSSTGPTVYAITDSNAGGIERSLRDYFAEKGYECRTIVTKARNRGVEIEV
Assay: biochemical
Format: biochemical
Details: inhibition constant, substrates at saturating concentrations; first tested at 1 mM; competitive inhibition fit; read-out: Ki
pKi: −log10 of the molar value.
Values of pKi greater than or equal to 4 map to criterion met; values below map to criterion not met.

>>> classification("CC(C)CN[C@H]1CC[C@@H](C(=O)O)CC1")
"criterion met"
>>> classification("O=C(O)c1ccc(NCc2ccco2)cc1")
"criterion met"
>>> classification("O=C(O)c1ccc(NCc2ccccn2)cc1")
"criterion met"
>>> classification("O=C(O)c1ccc(NCCO)cc1")
"criterion met"
>>> classification("CCCCOC(=O)c1ccc(NC(C)C)cc1")
"criterion not met"
>>> classification("Cc1cccc(CNc2ccc(C(=O)O)cc2)n1")
"criterion met"
>>> classification("NCc1ccc(C(=O)O)cc1")
"criterion met"
>>> classification("CC(C)Nc1ccc(C(=O)O)cc1")
"criterion met"
>>> classification("Nc1ccc(CC(=O)O)cc1")
"criterion met"
>>> classification("Nc1ccc(S(=O)(=O)O)cc1")
"criterion met"
>>> classification("OCc1ccc(B(O)O)cc1")
"criterion met"
>>> classification("Cc1cc(C(=O)O)ccc1NC(C)C")
"criterion met"
>>> classification("O=C(O)c1ccc(NCc2ccccc2O)cc1")
"criterion not met"
>>> classification("O=C(O)[C@H]1CC[C@@H](NCc2ccco2)CC1")
"criterion met"
>>> classification("O=P(O)(O)OC[C@H]1N[C@@H](c2ccccc2)[C@H](O)[C@@H]1O")
"criterion met"
>>> classification("OB(O)c1ccncc1")
"criterion not met"
>>> classification("CC(Nc1ccc(C(=O)O)cc1)C(F)(F)F (centres unmarked)")
"criterion met"
>>> classification("NCc1ccc(B(O)O)cc1")
"criterion not met"
>>> classification("O=C(O)c1ccc(CO)cc1")
"criterion not met"
>>> classification("CC(C)CNc1ccc(C(=O)O)cc1")
"criterion met"

----------
Test system: M. marburgensis
Assay: microbe, parasite or virus in culture
Assay type: cell-based
Conditions: Methanothermobacter marburgensis; H2/CO2-grown, 65° C., OD 580 nm; words refer to 1 millimolar; read-out: Inhibition of Growth M. marburgensis: concentration of compound which completely inhibited growth
Threshold check on MIC: strictly below 500 µM is 1; on or above 500 µM is 0.

>>> classification("O=C(O)c1ccc(NCc2ccc3ccccc3n2)cc1")
0
>>> classification("O=C(O)[C@H]1CC[C@@H](NCc2ccco2)CC1")
1
>>> classification("O=C(O)c1ccc(NCc2ccoc2)cc1")
1
>>> classification("CC(C)CCNc1ccc(C(=O)O)cc1")
0
>>> classification("Nc1n[nH]c(C(=O)O)n1")
0
>>> classification("O=C(O)c1ccc(NCc2ccco2)cc1")
1
>>> classification("Cc1cc(C(=O)O)ccc1NC(C)C")
1
>>> classification("O=C(O)c1ccc(NCc2ccncc2)cc1")
0
>>> classification("CCOC(=O)c1ccc(NC(C)C)cc1")
0

----------
Target: RFA-P synthase (Archaeoglobus fulgidus, UniProt O28190)
Sequence (O28190 1-313): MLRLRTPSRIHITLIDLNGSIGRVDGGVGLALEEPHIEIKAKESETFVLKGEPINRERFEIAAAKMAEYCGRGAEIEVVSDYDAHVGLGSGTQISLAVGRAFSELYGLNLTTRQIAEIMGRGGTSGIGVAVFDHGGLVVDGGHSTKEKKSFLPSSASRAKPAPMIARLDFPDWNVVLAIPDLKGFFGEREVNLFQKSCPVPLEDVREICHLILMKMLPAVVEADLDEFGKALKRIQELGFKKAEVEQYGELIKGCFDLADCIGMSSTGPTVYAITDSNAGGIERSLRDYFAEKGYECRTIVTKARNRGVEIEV
Experiment: biochemical
Type: biochemical
ENDPOINT LABEL: inhibition of RFA-P synthase (figure legend)

>>> reported_measurement("NCc1ccc(C(=O)O)cc1")
"inhibit RFA-P synthase"
>>> reported_measurement("CCCNc1ccc(C(=O)O)cc1")
"inhibit RFA-P synthase"
>>> reported_measurement("CC(C)CNc1ccc(C(=O)O)cc1")
"inhibit RFA-P synthase"

----------
// reported pKi per item
Target: RFA-P synthase (Archaeoglobus fulgidus)
Assay: biochemical
Assay type: biochemical
pKi: −log10 of the molar value.
ENDPOINT LABEL: pKi

>>> reported_measurement("CCCCOP(=O)(O)c1ccc(NC(C)C)cc1 [Compound A53]")
4.60
>>> reported_measurement("Nc1ccc(P(=O)(O)O)cc1 [Compound A49]")
4.07
>>> reported_measurement("O=C(O)Cc1ccc(O)cc1 [Compound A44]")
3.94
>>> reported_measurement("CC(C)OP(=O)(O)c1ccc(N)cc1 [Compound A13]")
4.82
>>> reported_measurement("CCCCOP(=O)(O)c1ccc(NCc2ccccn2)cc1 [Compound A55]")
4.60
>>> reported_measurement("CCOP(=O)(O)c1ccc(N)cc1 [Compound A48]")
4.19
>>> reported_measurement("CCNc1ccc(C(=O)O)cc1 [Compound A19]")
3.81
>>> reported_measurement("CCCCOP(=O)(O)c1ccc(N)cc1 [Compound A14]")
4.60

----------
Tested on: M. marburgensis
Assay: microbe, parasite or virus in culture
Assay type: cell-based
Conditions: Methanothermobacter marburgensis; H2/CO2-grown, 65° C., OD 580 nm; words refer to 1 millimolar; read-out: Inhibition of Growth M. marburgensis: concentration of compound which completely inhibited growth
// reported MIC per item
ENDPOINT LABEL: MIC (µM)

>>> reported_measurement("CCC(C(=O)O)c1ccc(N)cc1 (centres unmarked)")
500
>>> reported_measurement("CCCNc1ccc(C(=O)O)cc1")
600
>>> reported_measurement("O=C(O)c1ccc(NCc2c(F)c(F)c(F)c(F)c2F)cc1")
500
>>> reported_measurement("O=P(O)(O)OC[C@H]1N[C@@H](c2ccccc2)[C@H](O)[C@@H]1O")
500
>>> reported_measurement("Nc1ccc(C(=O)O)cc1O")
500
>>> reported_measurement("CC(C)Nc1ccc(C(=O)O)cc1")
100
>>> reported_measurement("CCCCOC(=O)c1ccc(NC(C)C)cc1")
1000
>>> reported_measurement("O=C(O)c1ccc(NCc2ccccn2)cc1")
0.1
>>> reported_measurement("CCCCCCNc1ccc(C(=O)O)cc1")
500
>>> reported_measurement("O=C(O)c1ccc(NCc2ccsc2)cc1")
1000
>>> reported_measurement("Nc1cccc(CC(=O)O)c1")
500

----------
Biological target: RFA-P synthase (Archaeoglobus fulgidus, UniProt O28190)
Test: biochemical
Format: biochemical
Conditions: inhibition constant, substrates at saturating concentrations; first tested at 1 mM; competitive inhibition fit; read-out: Ki
Threshold check on Ki: strictly below 70 µM is 1; on or above 70 µM is -1.

>>> classification("O=C(O)c1ccc(NCc2ccsc2)cc1 [Compound A28]")
1
>>> classification("CCCNc1ccc(C(=O)O)cc1 [Compound A20]")
1
>>> classification("O=C(O)c1ccc(NCc2ccccc2)cc1 [Compound A29]")
1
>>> classification("CNc1ccc(C(=O)O)cc1 [Compound A56]")
-1

----------
// reported Ki per item
Target: RFA-P synthase (Archaeoglobus fulgidus, UniProt O28190)
Assay: biochemical
Type: biochemical
Conditions: inhibition constant, substrates at saturating concentrations; first tested at 1 mM; competitive inhibition fit; read-out: Ki
ENDPOINT LABEL: Ki (µM)

>>> reported_measurement("CCOC(=O)c1ccc(NC(C)C)cc1")
130
>>> reported_measurement("O=C(O)c1ccc(NCc2ccoc2)cc1")
84
>>> reported_measurement("CCCOC(=O)c1ccc(NC(C)C)cc1")
130
